Assay target: Ectonucleotide pyrophosphatase/phosphodiesterase family member 1 (Homo sapiens, UniProt P22413)
Sequence (P22413 whole entry): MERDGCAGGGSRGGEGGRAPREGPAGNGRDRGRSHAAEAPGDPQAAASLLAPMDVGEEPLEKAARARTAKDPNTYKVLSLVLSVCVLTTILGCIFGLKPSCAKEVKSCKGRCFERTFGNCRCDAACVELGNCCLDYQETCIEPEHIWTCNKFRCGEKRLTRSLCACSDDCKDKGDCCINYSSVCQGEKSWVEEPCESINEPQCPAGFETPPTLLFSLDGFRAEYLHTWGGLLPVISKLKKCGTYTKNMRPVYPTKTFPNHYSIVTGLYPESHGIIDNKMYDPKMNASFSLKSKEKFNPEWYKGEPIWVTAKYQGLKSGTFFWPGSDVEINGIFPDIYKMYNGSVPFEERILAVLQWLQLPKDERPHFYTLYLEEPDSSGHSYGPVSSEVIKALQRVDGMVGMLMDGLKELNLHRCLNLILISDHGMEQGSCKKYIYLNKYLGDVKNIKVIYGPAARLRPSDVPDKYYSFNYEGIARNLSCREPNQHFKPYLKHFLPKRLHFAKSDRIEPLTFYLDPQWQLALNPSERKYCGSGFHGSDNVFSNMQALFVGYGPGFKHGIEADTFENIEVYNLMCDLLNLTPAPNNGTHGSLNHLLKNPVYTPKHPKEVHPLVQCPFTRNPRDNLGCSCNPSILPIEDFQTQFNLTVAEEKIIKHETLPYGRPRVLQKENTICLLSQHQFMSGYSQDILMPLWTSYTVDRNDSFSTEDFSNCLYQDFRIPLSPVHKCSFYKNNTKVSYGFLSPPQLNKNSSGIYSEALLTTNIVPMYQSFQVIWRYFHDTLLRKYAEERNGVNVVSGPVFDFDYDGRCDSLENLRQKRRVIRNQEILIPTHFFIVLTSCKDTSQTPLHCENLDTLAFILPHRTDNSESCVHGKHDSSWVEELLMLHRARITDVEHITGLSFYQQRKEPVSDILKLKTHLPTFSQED
Protocol details: Inhibition of human NPP1 expressed in COS-7 cell membranes assessed as reduction in p-nitrophenol production using pNP-TMP as substrate preincubated with enzyme for 15 mins followed by substrate addition and measured after 35 mins
Value kind: IC50 (µM)

Worked examples follow.
entry_smiles=CN(C)S(=O)(=O)Oc1ccc(-c2sc3cc(OS(=O)(=O)N(C)C)ccc3c2C(=O)c2ccc(OCCN3CCCCC3)cc2)cc1 experimental_result=4.24
entry_smiles=Cc1ccc(S(=O)(=O)Oc2ccc(-c3sc4cc(OS(=O)(=O)c5ccc(C)cc5)ccc4c3C(=O)c3ccc(OCCN4CCCCC4)cc3)cc2)cc1 experimental_result=0.45
entry_smiles=O=C(c1ccc(OCCN2CCCCC2)cc1)c1c(-c2ccc(OS(=O)(=O)c3ccc(F)cc3)cc2)sc2cc(OS(=O)(=O)c3ccc(F)cc3)ccc12 experimental_result=8.88
entry_smiles=COc1ccc(S(=O)(=O)Oc2ccc(-c3sc4cc(OS(=O)(=O)c5ccc(OC)cc5)ccc4c3C(=O)c3ccc(OCCN4CCCCC4)cc3)cc2)cc1 experimental_result=0.42

I. CC(C)(C)c1ccc(S(=O)(=O)Oc2ccc(-c3sc4cc(OS(=O)(=O)c5ccc(C(C)(C)C)cc5)ccc4c3C(=O)c3ccc(OCCN4CCCCC4)cc3)cc2)cc1
II. O=C(c1ccc(OCCN2CCCCC2)cc1)c1c(-c2ccc(OS(=O)(=O)c3ccc(C(F)(F)F)cc3)cc2)sc2cc(OS(=O)(=O)c3ccc(C(F)(F)F)cc3)ccc12
Of I and II , which carries the smaller reported IC50 figure? Lab note: record the label of whichever item you select.
I
(I: 0.29 µM, II: 4.01 µM)
